For each record, write down the corresponding Number of cells.
Tested on: alternative splicing of a specific gene (GFP/RFP reporter)
Assay: Compound screen with GFP/RFP alternative splicing reporter
Format: cell-based
Details: 50 ng/mL
Where a name gives a salt, the structure may show the parent alone.
One number for each entry.

CC(=O)O[C@H]1C(=O)[C@@]2(C)[C@H]([C@H](OC(=O)c3ccccc3)[C@]3(O)C[C@H](OC(=O)[C@H](O)[C@@H](NC(=O)c4ccccc4)c4ccccc4)C(C)=C1C3(C)C)[C@]1(OC(C)=O)CO[C@@H]1C[C@@H]2O [Taxol]; 719
Nc1ccn([C@@H]2O[C@H](CO)[C@@H](O)[C@@H]2O)c(=O)n1 (racemic) [Cytarabine]; 48
COc1cccc2c1C(=O)c1c(O)c3c(c(O)c1C2=O)C[C@@](O)(C(=O)CO)C[C@@H]3O[C@H]1C[C@H](N)[C@H](O)[C@H](C)O1 [Doxorubicin HCl]; 18
Clc1ccc(C(Cn2ccnc2)OCc2ccsc2Cl)c(Cl)c1 (racemic) [Tioconazole]; 850
COc1ccc(CC2c3cc(OC)c(OC)cc3CC[N+]2(C)CCC(=O)OCCCCCOC(=O)CC[N+]2(C)CCc3cc(OC)c(OC)cc3C2Cc2ccc(OC)c(OC)c2)cc1OC (racemic) [Atracurium besylate]; 3056

Now let's try a different one.
INPUT: Which value of Number of cells has been reported for CC(C(=O)O)c1ccc2c(c1)Cc1cccnc1O2 (racemic) [Pranoprofen] in the records?
OUTPUT: 3050
